Numbers sourced from patent US20220324977A1.

- TARGET_OR_TEST_SYSTEM: T1, canine PD-1 protein amino acids 25-168 with His tag (canine, UniProt A0A090BAM7 25-168)
- T1 construct: Expressed in Expi293F cells; used as immunogen and as antigen in ELISA and Octet; also called PD-1 His
- T1 sequence (A0A090BAM7 entry or part of it limits assumed): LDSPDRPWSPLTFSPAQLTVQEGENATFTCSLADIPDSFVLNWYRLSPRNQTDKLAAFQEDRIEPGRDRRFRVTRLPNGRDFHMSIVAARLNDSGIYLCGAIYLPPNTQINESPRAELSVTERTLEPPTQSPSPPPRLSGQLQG
- ASSAY_NAME: Octet BLI, supernatant captured by anti-mouse IgG Fc, PD-1 His 20 nM
Reported kon values follow for various binders

Memo: PD-1 A-M15 (antibody, mouse IgG1, V domains shown, Mouse IgG1 kappa, hybridoma supernatant; also called 11E10) VH: EVRLQQSGAELVKPGASVKLSCTASGFNIKDTYLHWLKERPEQGLEWIGRIDPAIGNTRYDPKFQVKATITADTSSNTAYLQLSSLTSEDSAVYYCARGFYGMDYWGQGTSVTVSS VL: QIVLTQSPAIMSASPGEKVTMTCSASSSVSYMFWYQQKPGSSPRLWIYDTSNLVSGVPARFSGSRSGTSYSLTISSMEAEDAATYYCQQYSGYPYTFGGGTKLEIK , reported kon: 58500 M⁻¹ s⁻¹

Memo: PD-1 A-M23 (antibody, mouse IgG1, V domains shown, Mouse IgG1 kappa, hybridoma supernatant; also called 18A08) VH: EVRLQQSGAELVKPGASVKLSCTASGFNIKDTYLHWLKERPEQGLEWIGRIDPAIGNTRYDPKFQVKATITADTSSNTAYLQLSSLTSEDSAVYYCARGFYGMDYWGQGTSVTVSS VL: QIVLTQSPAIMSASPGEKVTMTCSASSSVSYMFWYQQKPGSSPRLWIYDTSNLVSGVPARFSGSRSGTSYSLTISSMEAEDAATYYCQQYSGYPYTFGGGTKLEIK , reported kon: 296000 M⁻¹ s⁻¹
